# Test Target: MERS-CoV S S1 subunit (MERS-S1) (MERS-CoV EMC isolate, UniProt K9N5Q8 19-748)
# Experimental Details: ForteBio Octet kinetic measurement (FIG. 3A)
pKd: −log10 of the molar value.
Could you please report measured pKd for the items listed next?

Input line: Fill blank: measured pKd of the binder 1.2g5 (antibody, V domains shown) VH: QVQLVQSGAEVKKPGSSVKVSCKASGGTFSTYAISWVRQAPGQGLEWMGGIIPIFGTANYAQKFQGRVTIIADKSTNTAYMDLSSLRSEDTAVYYCAREGNLGYDVVTGYSYFVYWGQGTLVTVSS VL: EIVLTQSPGTLSLSPGERATLSCRASQSVSSSYLAWYQQKPDQVPRLLIYGTSSRATGIPDRFSGSGSGTDFTLTISRLEPEDFAVYYCQQYGRSLTFGGGTKVEIKR is ____.
Output line: ~10.09

Input line: Similarly, 1.3h2 (antibody, V domains shown) VH: QVQLVESGGGVVQPGRSLRLSCAASGFTFSRYGMHWVRQAPGKGLQWVAFIWYDGSNKYYADAVKVRFTISRDNSKNTLYLQMNSLRAEDTAVYYCATEGDYYGSGSYSRAEYFQEWGQGTLVTVSS VL: EIVMTQSPATLSVSPGERATLSCRASQSVSINLAWYQQKPGQAPRLLIYDTSARATGIPARFSGSGSGTEFTLTISSLQSEDFAVYYCQQYNNWPFTFGPGTKVDIKR ?
Output line: ~8.72

Input line: Similarly, 7.9g10 (antibody, V domains shown) VH: QVQLVQSGAEVKKPGSSVKVSCKASGGTFSSYAISWVRQAPGQGLEWMGGIIPIFGTANYAQKFQGRVTITADKSTNTAYMELSSLRSEDTAVYYCAREDITMVRGVITNYWYFDLWGRGTLVTVSS VL: DIQMTQSPSSLSASVGDRVTITCRASQDISNYLAWYQQKPGKVPKLLIYAASTLQSGVPSRFSGSGSGTDFTLTISSLQPEDVATYYCQKSNNAPLTFGGGTKVEIKR ?
Output line: ~9.70
